tested on: OVCAR-8; experiment: NCI tumour cell line growth inhibition, 48 h
Active and inactive are the calls of the source. Cut-off read from the data, not from the text of the source: active = GI50 up to about 1.1 µM and inactive = higher.
The reply should be one of these categories: yes = active, no = inactive

{"columns": ["Compound", "Label class"],
 "data": [
  ["CCCc1c(O)c(=O)c2c(OC)cc(OC)c3c4c(OC)cc(OC)c5c(=O)c(O)c(CCC)c(c1c23)c54", "yes"],
  ["CC12CC[C@H](O)C(C)(C)[C@H]1CC[C@](C)(O)C2COc1ccc2ccc(=O)oc2c1 (some centres undefined)", "no"],
  ["COc1ccccc1C1(c2c(OC)c(=O)c2=O)SCCCS1", "no"],
  ["COc1ccccc1Cc1nc(-c2ccccc2)nn(C2OC(COC(C)=O)C(OC(C)=O)C(OC(C)=O)C2OC(C)=O)c1=S (centres undefined)", "no"],
  ["CCCCCCCC(=O)N1C2CC3CCC2(CS1(=O)=O)C3(C)C (centres undefined)", "no"],
  ["NC1(c2cc3ccccc3s2)CCCCCC1", "no"]
]}

Hi team, can someone confirm the assay call for `O=C1C[C@H](COCc2ccccc2)NC(=O)C[C@H](COCc2ccccc2)NC(=O)C[C@H](COCc2ccccc2)N1` ?
no

Field: outcome | Entry: COC(C(O)CO)C(O)C(O)C(=O)NNc1ccccc1 (centres undefined)
no

Look up the recorded call for C#C[C@]1(O)CC[C@H]2[C@@H]3CCC4=C/C(=N/NC(=O)c5cccc6c(=O)c7ccccc7[nH]c56)CCC4[C@H]3CC[C@@]21C (some centres undefined) in this test.
no

Recorded values, source ChEMBL document CHEMBL1201862.
